Test system: Salmonella enterica subsp. enterica serovar Typhimurium C77-31
measurement-type: MIC

Q: What value of MIC has been reported for the following compound? `CC[C@H](C)[C@H](NC(=O)[C@H](CC(C)C)NC(=O)[C@@H](NC(=O)[C@@H](N)CC(=O)O)[C@@H](C)CC)C(=O)N[C@H](C(=O)N[C@H](C(=O)NCC(=O)NCC(N)=O)C(C)C)[C@@H](C)CC`
A: ≥ 64 µM

Q: What value of MIC has been reported for the following compound? `CC[C@H](C)[C@H](N)C(=O)N[C@@H](Cc1cnc[nH]1)C(=O)N[C@@H](Cc1cnc[nH]1)C(=O)N[C@H](C(=O)N[C@@H](Cc1cnc[nH]1)C(=O)N[C@@H](Cc1cnc[nH]1)C(=O)N[C@@H](Cc1cnc[nH]1)C(N)=O)[C@@H](C)CC`
A: ≥ 64 µM

Origin of the recorded values: DBAASP
